Would you mind telling me the reported Dmax of each entry?
- subjectOfTest: MK2 (Homo sapiens)
- Sequence (P49137 whole entry): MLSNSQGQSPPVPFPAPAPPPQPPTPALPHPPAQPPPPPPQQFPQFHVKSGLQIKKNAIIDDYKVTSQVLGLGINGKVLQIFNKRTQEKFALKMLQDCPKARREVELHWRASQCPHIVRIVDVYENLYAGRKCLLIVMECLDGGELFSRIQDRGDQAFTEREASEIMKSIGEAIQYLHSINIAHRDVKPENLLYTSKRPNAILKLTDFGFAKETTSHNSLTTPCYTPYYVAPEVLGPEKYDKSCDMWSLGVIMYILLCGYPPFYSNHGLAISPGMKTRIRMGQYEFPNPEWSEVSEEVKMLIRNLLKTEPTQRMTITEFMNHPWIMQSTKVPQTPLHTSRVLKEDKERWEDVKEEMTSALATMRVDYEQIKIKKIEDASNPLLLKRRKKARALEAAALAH
- assayMethodText: MK2 degradation in human THP-1 monocytic cells (MSD, 24 h)
- Format: cell-based
- Set-up: endogenous in cells
- runParameters: THP-1, THP-1 cells

Short answer for C[C@@H]1CNc2c(sc3ccc4nc(N5CCC6(CC5)CN(C5CCN(c7cccc8c7n(C)c(=O)n8C7CCC(=O)NC7=O)CC5)C6)ccc4c23)C(=O)N1 (stereo partly drawn) [Compound I-441] : Dmax was > 75%

Short answer for C[C@@H]1CNc2c(sc3ccc4nc(-c5ccc(N6CCN(CCOc7ccc8c(c7)n(C)c(=O)n8C7CCC(=O)NC7=O)CC6)cc5)ccc4c23)C(=O)N1 (stereo partly drawn) [Compound I-215] : Dmax was 50 to 75%

Short answer for Cc1ccc(NC(=O)c2cccc(C(F)(F)F)c2)cc1N1Cc2cnc(Nc3ccc(N4CCN(CCCCC(=O)N[C@H](C(=O)N5C[C@H](O)C[C@H]5C(=O)N[C@@H](C)c5ccc(-c6scnc6C)cc5)C(C)(C)C)CC4)nc3)nc2N(C)C1=O [Compound I-463] : Dmax was > 75%
